tested on: U251; test: NCI 60 cell line five dose, CNS Cancer
reported-endpoint: TGI (µM)
Enter your answer as a number in µM; do not include the unit.

- smiles-structure: "C=C1C(=O)O[C@H]2[C@H]1CC/C(COC(=O)NCCCCCNC(=O)OC/C1=C/CC[C@@]3(C)O[C@H]3[C@H]3OC(=O)C(=C)[C@@H]3CC1)=C\\CC[C@@]1(C)O[C@@H]21"
  TGI [µM]: 13.7

For reference, reported TGI for C=C1C(=O)O[C@H]2[C@H]1CC/C(COC(=O)NCCCCNC(=O)OC/C1=C/CC[C@@]3(C)O[C@H]3[C@H]3OC(=O)C(=C)[C@@H]3CC1)=C\CC[C@@]1(C)O[C@@H]21 stands at 9.83

For reference, reported TGI for C=C1C(=O)O[C@H]2[C@H]1CC/C(COC(=O)CCC(=O)NCCCCCCCCCNC(=O)CCC(=O)OC/C1=C/CC[C@@]3(C)O[C@H]3[C@H]3OC(=O)C(=C)[C@@H]3CC1)=C\CC[C@@]1(C)O[C@@H]21 stands at 9.25

For reference, reported TGI for C=C1C(=O)O[C@H]2[C@H]1CC/C(COC(=O)CCC(=O)NCCCCCCCCNC(=O)CCC(=O)OC/C1=C/CC[C@@]3(C)O[C@H]3[C@H]3OC(=O)C(=C)[C@@H]3CC1)=C\CC[C@@]1(C)O[C@@H]21 stands at 10.6

Provenance of the data: patent US10118935B2
